# assayInfo: in vitro
# experimentalSetup: dog, MDCK-MDR1
Give Papp A→B for every item shown.
Numeric only. Scale: ×10⁻⁶ cm/s

Req: Tell me the measured Papp A→B of `Cc1ccc2c(ccc(/C=C/c3cc(C)n(-c4ccccc4)c3C)[n+]2C)c1.[I-]` , please.
Resp: 0.1

Req: Also check `Cc1ccc2c(ccc(/C=C/c3c(C)nn(-c4ccccc4)c3C)[n+]2C)c1.[I-]`
Resp: 0.5

Req: Also check `Cc1nn(-c2ccccc2)c(C)c1/C=C/c1ccc2ccccc2[n+]1C.[I-]`
Resp: 0.7

Req: Also check `Cc1cc(/C=C/c2ccc3ccccc3[n+]2C)c(C)n1-c1ccccc1.[I-]`
Resp: 0.1

Req: Also check `Cc1c(/C=C/c2ccc3ccccc3[n+]2C)cnn1-c1ccccc1.[I-]`
Resp: 1.3
